tested_system: WRN (human, UniProt Q14191 1-1432)
Sequence (Q14191 whole entry): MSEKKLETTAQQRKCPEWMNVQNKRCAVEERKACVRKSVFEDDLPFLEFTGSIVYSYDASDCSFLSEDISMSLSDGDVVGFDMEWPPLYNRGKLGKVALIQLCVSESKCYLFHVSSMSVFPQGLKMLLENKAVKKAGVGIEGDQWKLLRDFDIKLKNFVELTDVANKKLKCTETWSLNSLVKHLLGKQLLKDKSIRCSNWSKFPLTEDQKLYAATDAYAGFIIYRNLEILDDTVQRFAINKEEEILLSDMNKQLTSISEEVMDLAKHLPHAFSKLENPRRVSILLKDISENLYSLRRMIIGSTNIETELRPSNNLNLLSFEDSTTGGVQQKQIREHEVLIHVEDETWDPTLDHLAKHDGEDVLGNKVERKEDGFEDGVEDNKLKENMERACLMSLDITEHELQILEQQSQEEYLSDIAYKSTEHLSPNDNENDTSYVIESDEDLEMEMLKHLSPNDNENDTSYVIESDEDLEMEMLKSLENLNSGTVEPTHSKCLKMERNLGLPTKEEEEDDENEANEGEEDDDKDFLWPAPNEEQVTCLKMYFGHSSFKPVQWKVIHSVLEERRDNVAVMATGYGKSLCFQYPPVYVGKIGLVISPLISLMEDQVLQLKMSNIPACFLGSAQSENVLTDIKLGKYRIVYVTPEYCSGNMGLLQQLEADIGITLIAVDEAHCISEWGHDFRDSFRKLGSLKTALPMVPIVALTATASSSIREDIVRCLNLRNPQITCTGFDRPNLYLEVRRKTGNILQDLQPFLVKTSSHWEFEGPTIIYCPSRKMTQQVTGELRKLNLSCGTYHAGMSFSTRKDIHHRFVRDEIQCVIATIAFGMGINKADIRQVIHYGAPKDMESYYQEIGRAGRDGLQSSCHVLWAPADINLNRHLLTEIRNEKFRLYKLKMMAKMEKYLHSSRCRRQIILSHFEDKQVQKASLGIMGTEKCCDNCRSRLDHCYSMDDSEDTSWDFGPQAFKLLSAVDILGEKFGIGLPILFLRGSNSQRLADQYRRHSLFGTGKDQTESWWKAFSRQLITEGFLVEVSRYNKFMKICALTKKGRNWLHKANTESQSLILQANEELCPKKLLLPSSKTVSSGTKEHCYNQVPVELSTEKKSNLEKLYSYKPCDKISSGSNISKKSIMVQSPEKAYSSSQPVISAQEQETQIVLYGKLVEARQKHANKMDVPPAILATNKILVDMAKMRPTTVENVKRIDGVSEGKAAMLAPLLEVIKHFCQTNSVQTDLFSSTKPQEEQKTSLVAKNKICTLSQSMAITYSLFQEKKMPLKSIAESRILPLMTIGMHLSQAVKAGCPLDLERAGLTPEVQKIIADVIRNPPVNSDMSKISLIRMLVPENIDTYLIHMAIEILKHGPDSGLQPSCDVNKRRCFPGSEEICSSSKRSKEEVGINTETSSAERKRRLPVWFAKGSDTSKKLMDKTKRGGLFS
protocol_text: EMSA; ATPgS, 4 mM Mg2+, 10 mM KCl; EMSA: 40 mM Tris-HCl pH 8.0, 4 mM MgCl2, 5 mM DTT, 1 mM ATPgS, 0.1 ug BSA in 10 ul, 4 C, 20 min; +10 mM KCl for quadruplexes; 4% gel, 0.5x Tris-glycine pH 8.3
measurement_setup: protein: recombinant; tags: His6; label: 5'-32P; G4 tetramer of 4 parallel strands
parameter_measured: Kd (nM)
Just the number please, in nM, no unit attached.

-- ask Bench note: what Kd did TGGACCAGACCTAGCAGCTATGGGGGAGCTGGGGAAGGTGGGAATGTGA (structured_DNA) [G4 IgG quadruplex] show?
-- reply 3.4
